Cited source: ChEMBL document CHEMBL6071176

Please go through the items and note down their HC50 at 1 h.
assay: Hemolytic activity in sheep red blood cells measured after 1 hr incubation; format: toxicity, cell-based, Ovis aries, Erythrocyte
One number for each entry, in µg/mL.

{"chem.smiles": "CCCCCCCCCCCC[N+](C)(C)CCCOc1cc(OCCC[N+](C)(C)CCCCCCCCCCCC)cc(OCCC[N+](C)(C)CCCCCCCCCCCC)c1.[Br-].[Br-].[Br-]", "readout.kind": "HC50 at 1 h", "scale.unit": "µg/mL", "observed.value": 10}

Prompt: Supply recorded HC50 at 1 h for "CCCCCCCCCC[N+](C)(C)CCCOc1cc(OCCC[N+](C)(C)CCCCCCCCCC)cc(OCCC[N+](C)(C)CCCCCCCCCC)c1.[Br-].[Br-].[Br-]" here.
Completion: 54
